Test conditions: 303.15 K; 101.33 kPa; Liquid; Vibrating tube method
± gives the expanded uncertainty stated by the source.
Readout label: mass density

compound=CCCO readout_label="mass density" result="795.47 ± 0.13 kg/m3"
compound=CCO readout_label="mass density" result="780.72 ± 0.12 kg/m3"
compound="CCOC(=O)OCC [diethyl carbonate]" readout_label="mass density" result="963.39 ± 0.08 kg/m3"
compound=CCCCCO readout_label="mass density" result="807.26 ± 0.13 kg/m3"
compound=CCCCCCCCO readout_label="mass density" result="818.23 ± 0.12 kg/m3"

----------
Test conditions: 298.15 K; 101.33 kPa; Liquid; Vibrating tube method
Parameter mass density: see the listing below.
Readout label: mass density (kg/m3)

compound=CCCCCO units_text=kg/m3 numeric_readout=810.96
compound=CCCO units_text=kg/m3 numeric_readout=799.45
compound="CCOC(=O)OCC [diethyl carbonate]" units_text=kg/m3 numeric_readout=969.15
compound=CCO units_text=kg/m3 numeric_readout=785.07
compound=CCCCCCCCO units_text=kg/m3 numeric_readout=821.74

----------
Test conditions: 293.15 K; 101.33 kPa; Liquid; Capillary tube (Ostwald / Ubbelohde) method
Kindly return true if reported viscosity is no lower than 2 mPa·s; return false if it is lower.

compound="CCCO [propan-1-ol]" class_assignment=true
compound="CCOC(=O)OCC [diethyl carbonate]" class_assignment=false
compound="CCCCCCCCO [octan-1-ol]" class_assignment=true
compound="CCCCCO [pentan-1-ol]" class_assignment=true
compound="CCO [ethanol]" class_assignment=false

----------
Test conditions: 313.15 K; 101.33 kPa; Liquid; Vibrating tube method
Parameter mass density: see the listing below.
Readout label: mass density (kg/m3)

compound=CCCCCO readout_label="mass density" numeric_readout=799.78
compound=CCO readout_label="mass density" numeric_readout=771.97
compound=CCCCCCCCO readout_label="mass density" numeric_readout=811.22
compound="CCOC(=O)OCC [diethyl carbonate]" readout_label="mass density" numeric_readout=952.1
compound=CCCO readout_label="mass density" numeric_readout=787.28

----------
Test conditions: 303.15 K; 101.33 kPa; Liquid; Capillary tube (Ostwald / Ubbelohde) method
Readout label: viscosity (mPa·s)

molecule="CCCO [propan-1-ol]" numeric_readout=1.733
molecule="CCCCCO [pentan-1-ol]" numeric_readout=3.022
molecule="CCO [ethanol]" numeric_readout=1.01
molecule="CCOC(=O)OCC [diethyl carbonate]" numeric_readout=0.7
molecule="CCCCCCCCO [octan-1-ol]" numeric_readout=6.404

----------
Parameter mass density: see the listing below.
Test conditions: 288.15 K; 101.33 kPa; Liquid; Vibrating tube method
Numbers after ± are expanded uncertainties.
Readout label: mass density

compound=CCCCCO result="818.32 ± 0.13 kg/m3"
compound="CCOC(=O)OCC [diethyl carbonate]" result="980.39 ± 0.07 kg/m3"
compound=CCCO result="807.55 ± 0.12 kg/m3"
compound=CCO result="793.65 ± 0.12 kg/m3"
compound=CCCCCCCCO result="828.63 ± 0.12 kg/m3"

----------
Parameter mass density: see the listing below.
Test conditions: 293.15 K; 101.33 kPa; Liquid; Vibrating tube method
Readout label: mass density (kg/m3)

compound="CCCCCO [pentan-1-ol]" numeric_readout=814.63
compound="CCCO [propan-1-ol]" numeric_readout=803.52
compound="CCO [ethanol]" numeric_readout=789.34
compound="CCCCCCCCO [octan-1-ol]" numeric_readout=825.2
compound="CCOC(=O)OCC [diethyl carbonate]" numeric_readout=974.83

Reference source for all entries: the NIST ThermoML archive (doi:10.1021/je1013476)
